Give measured koff for each item. Keep answers brief.
subject.of.test: T1, human DLL3 (ACRO, DLL3-H52H4) (human, UniProt Q9NYJ7 27-492)
T1 construct: Bought
T1 sequence: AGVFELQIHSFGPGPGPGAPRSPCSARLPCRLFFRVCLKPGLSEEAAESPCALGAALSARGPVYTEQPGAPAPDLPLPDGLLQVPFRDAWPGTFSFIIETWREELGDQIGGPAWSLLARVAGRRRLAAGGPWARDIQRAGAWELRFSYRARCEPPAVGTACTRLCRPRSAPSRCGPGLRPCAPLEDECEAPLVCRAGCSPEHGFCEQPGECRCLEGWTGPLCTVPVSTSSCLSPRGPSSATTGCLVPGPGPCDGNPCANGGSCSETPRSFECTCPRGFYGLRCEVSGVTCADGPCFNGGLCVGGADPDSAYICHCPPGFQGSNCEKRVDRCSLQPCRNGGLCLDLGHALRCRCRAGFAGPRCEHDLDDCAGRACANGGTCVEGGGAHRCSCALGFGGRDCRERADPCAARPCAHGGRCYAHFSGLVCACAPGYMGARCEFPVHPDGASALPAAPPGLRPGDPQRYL
procedure.summary: SPR Biacore 8K, Ab captured on Protein A
Answer format: numeric, s⁻¹ implied, no suffix.

Exercise: Look up koff of hu30L4H9 (antibody, human IgG1, kappa, V domains shown) VH: EVRLVQSGAEVKKPGASVKVSCKASGYTFTDYYMNWVRQAPGQSLEWIGIINPYTGDTSYNQKFRGRATLTVDKSASTAYMELSSLRSEDTAVYYCARYHYGPHLEGYFDVWGQGTTVTVSS VL: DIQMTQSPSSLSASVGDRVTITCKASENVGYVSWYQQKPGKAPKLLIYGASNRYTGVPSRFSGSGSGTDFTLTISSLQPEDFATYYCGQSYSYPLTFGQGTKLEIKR and report it.
Solution: 0.00101

Exercise: Look up koff of hu110L2H5 (antibody, human IgG1, kappa, V domains shown) VH: EVQLVQSGAEVKKPGASVKVSCKTSGYTFTDYYMNWVRQAPGQSLEWMGIINPYTGGTSYTQKFKGRVTITVDKSASTAYMELSSLRSEDTAVYYCARHFYDSSYLTYSTMDYWGQGTTVTVSS VL: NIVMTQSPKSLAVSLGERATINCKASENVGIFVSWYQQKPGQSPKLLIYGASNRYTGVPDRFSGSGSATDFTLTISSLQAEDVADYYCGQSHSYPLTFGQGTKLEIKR and report it.
Solution: 8.96e-05

Exercise: Look up koff of hu6L4H11 (antibody, human IgG1, kappa, V domains shown) VH: EVQLVQSGSELKKPGASVKVSCKASGYTFTDYYMNWVKQAPGQGLEWMGIINPYSGVTIYNHKFKGRFVLSVDKSSNTAYLQISSLKAEDTAVYYCARQDSLLDYAMDYWGQGTTVTVSS VL: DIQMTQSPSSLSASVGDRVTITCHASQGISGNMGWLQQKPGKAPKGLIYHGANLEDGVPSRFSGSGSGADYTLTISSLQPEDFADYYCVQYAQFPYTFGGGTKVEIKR and report it.
Solution: 0.000672

# credit: patent US20250376519A1
